These entries and their values trace back to ChEMBL document CHEMBL1201862.

# Test system: LOX IMVI
# assay-method-text: NCI tumour cell line growth inhibition, 48 h
Calls of active or inactive are those of the source. No stated cut-off is given here; in the data, active = GI50 up to about 1.1 µM and inactive = higher.
Outcome codes: TRUE for active, FALSE for inactive

[
  {
    "molecule": "C=CCN1/C(=C2\\SC(=S)N(c3ccc(C)cc3)C2=O)Sc2c1nc[nH]c2=O",
    "assigned-label": "FALSE"
  },
  {
    "molecule": "O=C(O)CCC(=O)c1ccc2ccc3cccc4ccc1c2c34",
    "assigned-label": "FALSE"
  },
  {
    "molecule": "COc1cc2c(c(OC)c1OC)-c1ccc(OC)c(=O)cc1C(NC(=O)c1ccc(N=[N+]=[N-])cc1)CC2 (centres undefined)",
    "assigned-label": "TRUE"
  },
  {
    "molecule": "CC(=O)N1C(OCc2ccccc2)CCN1c1ccccc1 (centres undefined)",
    "assigned-label": "FALSE"
  },
  {
    "molecule": "CCOC(=O)/C=C(/C(=O)OCC)n1cc(C)c(=O)n(/C(=C/C(=O)OCC)C(=O)OCC)c1=O",
    "assigned-label": "FALSE"
  },
  {
    "molecule": "O=C(CC1=Nc2nnc(CCCCCCCc3nnc4n3C(=O)C(CC(=O)c3ccccc3)=N4)n2C1=O)c1ccccc1",
    "assigned-label": "FALSE"
  },
  {
    "molecule": "O=C(O)C1Cc2c([nH]c3ccccc23)C(CCCCO)N1 (centres undefined)",
    "assigned-label": "FALSE"
  },
  {
    "molecule": "CCOC(=O)C(NC(=O)c1ccccc1)(Nc1ccc(S(=O)(=O)Nc2ncccn2)cc1)C(F)(F)F (centres undefined)",
    "assigned-label": "FALSE"
  },
  {
    "molecule": "CSc1nc(O)c2cn(Cc3ccccc3)nc2n1",
    "assigned-label": "FALSE"
  },
  {
    "molecule": "COc1ccc([C@H]2c3cc4c(cc3OC(O)(CO)[C@H]2C(=O)O)OCO4)c(OC)c1.COc1ccc([C@H]2c3cc4c(cc3OC3(O)COC(=O)[C@@H]23)OCO4)c(OC)c1 (some centres undefined)",
    "assigned-label": "FALSE"
  },
  {
    "molecule": "Brc1ccc2c(-c3csc(-c4c[nH]c5ccccc45)n3)c[nH]c2c1",
    "assigned-label": "FALSE"
  },
  {
    "molecule": "O=C1CSC(=S)N1/N=C/c1ccc(Cl)c([N+](=O)[O-])c1",
    "assigned-label": "FALSE"
  },
  {
    "molecule": "COc1ccc(NC2=NCCO2)c2c1CCCC2",
    "assigned-label": "FALSE"
  },
  {
    "molecule": "COc1ccc(NC(=O)CC(=O)N2N=C(C)C(/N=N\\c3ccc(S(=O)(=O)c4ccc(/N=N/C5C(=O)N(C(=O)CC(=O)Nc6ccc(OC)cc6)N=C5C)cc4)cc3)C2=O)cc1 (centres undefined)",
    "assigned-label": "FALSE"
  },
  {
    "molecule": "COP(=O)(OC)C1=c2c(C)noc2=C2C=COC2C1=O (centres undefined)",
    "assigned-label": "FALSE"
  },
  {
    "molecule": "O=C1[C@@H]2C(c3ccccc3F)=NO[C@@H]2C(=O)N1c1ccc(Cc2ccc(N3C(=O)[C@H]4C(c5ccccc5F)=NO[C@H]4C3=O)cc2)cc1",
    "assigned-label": "FALSE"
  },
  {
    "molecule": "N#C[C@H](C(=O)c1ccccc1F)c1nc2ccccc2s1",
    "assigned-label": "FALSE"
  },
  {
    "molecule": "CC(C)OP(=S)(NC(=S)c1ccccc1)OC(C)C",
    "assigned-label": "FALSE"
  },
  {
    "molecule": "COc1ccccc1CNC(=O)[C@H](Cc1ccc(O)cn1)NC(C)=O",
    "assigned-label": "FALSE"
  }
]
